Biological target: TDP-43 (Homo sapiens, UniProt Q13148 1-414)
Sequence (Q13148 whole entry): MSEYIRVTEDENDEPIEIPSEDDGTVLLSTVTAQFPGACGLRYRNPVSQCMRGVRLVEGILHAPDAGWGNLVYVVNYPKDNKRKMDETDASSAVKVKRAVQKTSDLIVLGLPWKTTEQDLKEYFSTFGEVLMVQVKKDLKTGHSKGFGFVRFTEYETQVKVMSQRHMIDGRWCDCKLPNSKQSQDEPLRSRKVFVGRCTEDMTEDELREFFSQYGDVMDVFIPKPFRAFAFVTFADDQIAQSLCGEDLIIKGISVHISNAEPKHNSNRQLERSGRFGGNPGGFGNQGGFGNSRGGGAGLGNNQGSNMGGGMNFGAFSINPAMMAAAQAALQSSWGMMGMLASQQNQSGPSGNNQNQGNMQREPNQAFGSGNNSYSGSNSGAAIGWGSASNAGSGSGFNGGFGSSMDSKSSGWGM
Assay: RNA Bind-n-Seq with designed 260-mer pool; 25 mM Tris-HCl, 150 mM KCl, 3 mM MgCl2, BSA (printed 500 mg/mL), 20 units/mL SUPERase IN; pH not stated; 500 nM RNA pool, 1 h, 4 C; TDP-43 5, 50, 500 nM; high values mean tight binding
Conditions: protein: recombinant; tags: SBP (GST cleaved off with PreScission; pGEX-GST-SBP)
Over roughly 9,900 sequences, “r (bound/input frequency ratio)” has its median near 0.7; the highest 2% begin near 6.5. Shown is part of a subset that was picked to be rich in the highest values.
readout-label: binding signal

Query :: What value of measured binding signal is listed for ENSMUSG00000004113.44|Cacna1b (ssRNA) RNA: GGGAGUUCUACAGUCCGACGAUCGCUUCGAUAUCCGCAUGCUAUCCGCCGUGUACCCAAUGGCUAUCACUGCACUUUGGGACUCAGCACUGGCGUCCGGGCGCGGCACAGCUACCACCACCCCGAUCAGGACCACUGGUGCUAGCUGCACCACGACCACCCAUGUACCAGCUCCAUGGGUGAGGGUUCCAGUUGAUGAGUUUUAUCAUCCGCUCUGGGCUGUGGGGUCACAGCCCUGGGAGGAGGGCCCUCACAUCUCGGCCUCUGUGGUGGAGGCUCCUGCUUCCCUCCCUCCCUCCCUUUUCUCUUGCGGUCGCACUAGUGUGGAAUUCUCGGGUGUCAAGG ?
Result :: 0.443 R (bound/input frequency ratio)
